Measured logP by item
PROCEDURE_SUMMARY: physchem
EXPERIMENTAL_CONDITIONS: n-octanol/water

Below: 3 molecules and their reported logP.
# MOLECULE, MEASUREMENT_LABEL, OBSERVED
rows = [
    ("CC(C=O)Cc1ccc(C(C)C)cc1 (racemic)", "logP", 3.59),
    ("CC1=C[C@H](C)[C@H]2[C@H](CCC(C)(C)[C@H]2O)C1 (racemic)", "logP", 5.24),
    ("CCCCCCC(=O)OCC [ethyl heptanoate]", "logP", 3.58),
]

[in] I am curious: what logP value has been reported for C/C=C(\C)C(=O)OCCCCCC [hexyl (2E)-2-methyl-2-butenoate] ?
[out] 4.8

[in] I am curious: what logP value has been reported for CC1CC(C)(c2ccccc2)CO1 (racemic) ?
[out] 3.02

[in] I am curious: what logP value has been reported for CCCCCCCCCCC=O [undecanal] ?
[out] 4.56

====

PROCEDURE_SUMMARY: Odor threshold of perfuming compounds in air
EXPERIMENTAL_CONDITIONS: Table 7, citrus note
Where a name gives a salt, the structure may show the parent alone.
Records here are stratified by Odor Threshold; strata: lower bin: < 0.003 μg/l air; middle bin: ≥ 0.003 μg/l air and < 0.08 μg/l air; upper bin: ≥ 0.08 μg/l air

# COMPOUND, CAT
measured = [
    ("CCOc1ccc2ccccc2c1", "middle bin"),
    ("COCC(C)Cc1ccccc1 (racemic) [(+−)-(3-methoxy-2-methylpropyl)benzene]", "middle bin"),
    ("CCCCCC=O", "lower bin"),
    ("C=CC(C)CC(=O)CC(C)C (racemic)", "upper bin"),
    ("CC(OC=O)C1CCCC(C)(C)C1 (stereo not shown)", "upper bin"),
    ("CCCCCCCCOC(C)=O [octyl acetate]", "upper bin"),
    ("C=CC(C)(O)CCC=C(C)C (racemic) [(+−)-3,7-dimethyl-1,6-octadien-3-ol]", "lower bin"),
    ("O=COCCc1ccccc1 [2-PHENYLETHYL FORMATE]", "lower bin"),
    ("CCC(C)C(=O)OC(C)C (racemic) [(+−)-ISOPROPYL 2-METHYLBUTANOATE]", "middle bin"),
    ("C=C(C)C1CC=C(C)CC1 (single isomer, unassigned; (+)) [(+)-LIMONENE]", "upper bin"),
]

[in] Category of CC(C)CCCC(C)CCO (racemic) :
[out] middle bin

[in] Category of `CC1=CCC(C(C)C)=CC1` :
[out] upper bin

[in] Category of CC(C)=CCCC(C)CCOCC=O (racemic) :
[out] lower bin

[in] Category of CCCCC/C=C/CCC=O [(E)-4-DECENAL] :
[out] lower bin

[in] Category of `CCC/C=C/C=O` :
[out] lower bin

====

PROCEDURE_SUMMARY: Volatility of perfuming compounds in air
Type: physicochemical
EXPERIMENTAL_CONDITIONS: Table 10, perfuming compounds having a woody note
MEASUREMENT_LABEL: Volatility (μg/l air)
State just the number; it will be interpreted in μg/l air.

Below: 6 compounds and their reported Volatility (μg/l air).
# COMPOUND, Volatility (μg/l air)
measured = [
    ("C/C=C(\\C)C(=O)OCc1ccccc1 [BENZYL (E)-2-METHYL-2-BUTENOATE]", 33.88),
    ("C[C@H]1[C@@H]2C[C@H](C[C@@]13C=CC(=O)CC3)C2(C)C", 4.14),
    ("CC(=O)O[C@@H]1C(C)(C)CCC[C@]12CC=C(C)C[C@H]2C (racemic)", 8.25),
    ("CC(=O)OC1CCC2C(C)(C)CCCC2(C)C1 (centres unmarked)", 14.41),
    ("CCOCOC1CCCCCCCCCCC1 [(ETHOXYMETHOXY)CYCLODODECANE]", 6.63),
    ("COC(C)(C)CCCC(C)C(C)O (racemic)", 35.54),
]

[in] I am curious: what Volatility (μg/l air) value has been reported for CC(=O)/C(C)=C/C1C(C)=CCCC1(C)C (racemic) ?
[out] 106.28

[in] I am curious: what Volatility (μg/l air) value has been reported for N#C/C=C/c1ccccc1 [(E)-3-PHENYL-2-PROPENENITRILE] ?
[out] 66.00

[in] I am curious: what Volatility (μg/l air) value has been reported for `CC/C(=C\C[C@H]1CC=C(C)C1(C)C)CO` ?
[out] 2.75

[in] I am curious: what Volatility (μg/l air) value has been reported for CC1C(C)(C)C2=C(C(=O)CCC2)C1(C)C (centres unmarked) ?
[out] 29.81

[in] I am curious: what Volatility (μg/l air) value has been reported for `C/C=C/C(=O)C1=C(C)CCCC1(C)C` ?
[out] 81.66
